molecular target: TBK1 (Homo sapiens (Human), UniProt Q9UHD2); test: TBK1 low ATP kinase assay (in vitro assay 1); format: biochemical; settings: in vitro assay 1, read-out: TBK1 low ATP kinase assay IC50
Sequence (Q9UHD2 whole entry): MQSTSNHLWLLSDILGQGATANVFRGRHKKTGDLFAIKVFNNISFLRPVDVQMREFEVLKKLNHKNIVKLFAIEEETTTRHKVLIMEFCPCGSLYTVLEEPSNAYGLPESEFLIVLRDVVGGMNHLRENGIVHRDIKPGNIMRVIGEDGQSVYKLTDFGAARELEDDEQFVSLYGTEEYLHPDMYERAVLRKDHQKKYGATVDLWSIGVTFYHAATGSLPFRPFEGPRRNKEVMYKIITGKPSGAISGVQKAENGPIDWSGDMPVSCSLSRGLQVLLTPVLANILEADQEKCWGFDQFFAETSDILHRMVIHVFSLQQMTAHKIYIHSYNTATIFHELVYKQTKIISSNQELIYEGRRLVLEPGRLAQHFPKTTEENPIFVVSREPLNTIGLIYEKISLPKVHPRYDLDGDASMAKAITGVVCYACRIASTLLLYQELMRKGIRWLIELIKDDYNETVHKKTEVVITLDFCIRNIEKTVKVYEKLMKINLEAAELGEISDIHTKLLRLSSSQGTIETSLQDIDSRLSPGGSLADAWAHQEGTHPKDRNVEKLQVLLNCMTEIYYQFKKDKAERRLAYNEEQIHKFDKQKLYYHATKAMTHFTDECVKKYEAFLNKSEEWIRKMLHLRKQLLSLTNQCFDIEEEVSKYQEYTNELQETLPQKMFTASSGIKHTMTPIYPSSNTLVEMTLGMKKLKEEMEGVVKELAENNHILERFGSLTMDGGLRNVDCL
ENDPOINT: IC50 (nM)

Known results for compounds:
Reported IC50 for CN(C)c1cc(-c2ccc3nc(Nc4cc(CN5CCN(C(=O)C6CC6)CC5)ccn4)[nH]c3c2)ncn1 : what is it?
4.8

Reported IC50 for CC(c1ccnc(Nc2nc3ccc(-c4cnn(CC5CC5(F)F)c4)c(F)c3[nH]2)c1)N1CCN(C(=O)CC(F)(F)F)CC1 (single isomer, unassigned) : what is it?
2.1

Reported IC50 for CC(c1ccnc(Nc2nc3ccc(-c4cnn(CC5CC5)c4)c(Cl)c3[nH]2)c1)N1CCN(C(=O)CC(F)(F)F)CC1 (single isomer, unassigned) : what is it?
1.2

1: CN(CC1CC1)c1cc(-c2ccc3nc(Nc4cc(CN5CCN(C(=O)OC(C)(C)C)CC5)ccn4)[nH]c3c2)ncn1
2: COc1c(-c2ccc3nc(Nc4cc(C(C)N5CCN(C(=O)CC(F)(F)F)CC5)ccn4)[nH]c3c2)ncnc1N(C)C (single isomer, unassigned)
3: CC(c1ccnc(Nc2nc3ccc(-c4ccncn4)cc3[nH]2)c1)N1CCN(C(=O)C2CCC2)CC1 (racemic) [Example 23.04.01]
Reorder: IC50, max to min. State the ranking by listing the labels in the requested order.
1, 2, 3

----------
target: TBK1 (Homo sapiens (Human)); assay: TBK1 low ATP kinase assay (in vitro assay 1); type: biochemical; details: in vitro assay 1, read-out: TBK1 low ATP kinase assay IC50
ENDPOINT: IC50 (nM)

Known results for compounds:
Reported IC50 for COc1ccncc1-c1ccc2nc(Nc3cc(CN4CCN(C(=O)C5CCC5)CC4)ccn3)[nH]c2c1 : what is it?
195

Reported IC50 for Cc1nc(-c2ccc3nc(Nc4cc(CN5CCN(C(=O)CC(F)(F)F)CC5)ccn4)[nH]c3c2)cc(N(C)C)n1 : what is it?
868

1: CC(c1ccnc(Nc2nc3ccc(-c4cc(C(F)(F)F)nn4C)cc3[nH]2)c1)N1CCN(C(=O)CC(F)(F)F)CC1 (single isomer, unassigned)
2: COc1c(C)ncnc1-c1ccc2nc(Nc3cc(C(C)N4CCN(C(=O)C5(C(F)(F)F)CC5)CC4)ccn3)[nH]c2c1 (stereo not drawn)
3: CC(c1ccnc(Nc2nc3ccc(-c4cc(OCC(F)(F)C(F)(F)F)ncn4)cc3[nH]2)c1)N1CCN(C(=O)CC(F)(F)F)CC1 (single isomer, unassigned)
4: CN(C)c1ncnc(-c2ccc3nc(Nc4cc(CN5CCN(C(=O)C6CC6)CC5)ccn4)[nH]c3c2)c1Cl
Reorder: IC50, max to min. State the ranking by listing the labels in the requested order.
4, 1, 3, 2
(4: 1260 nM, 1: 860 nM, 3: 20.5 nM, 2: 2.9 nM)

----------
molecular target: TBK1 (Homo sapiens (Human), UniProt Q9UHD2); test: TBK1 low ATP kinase assay (in vitro assay 1); type: biochemical; settings: in vitro assay 1, read-out: TBK1 low ATP kinase assay IC50
pIC50: −log10 of the molar value.
ENDPOINT: pIC50

Known results for molecules:
So what pIC50 did Cc1noc(-c2ccc3nc(Nc4cc(C(C)N5CCN(C(=O)C6CC6)CC5)ccn4)[nH]c3c2)n1 (single isomer, unassigned) [Example 16.06.03.A] get with TBK1 (Homo sapiens (Human), UniProt Q9UHD2)?
7.86

So what pIC50 did CCOc1nccc(-c2ccc3nc(Nc4cc(C(C)N5CCN(C(=O)CC(F)(F)F)CC5)ccn4)[nH]c3c2)n1 (racemic) [Example 26.02.01] get with TBK1 (Homo sapiens (Human), UniProt Q9UHD2)?
8.33

So what pIC50 did Cn1ccc(-c2ccc3nc(Nc4cc(CN5CCN(C(=O)C6CC6)CC5)ccn4)[nH]c3c2)n1 get with TBK1 (Homo sapiens (Human), UniProt Q9UHD2)?
6.01

So what pIC50 did COc1cc(-c2ccc3nc(Nc4cc(CN5CCN(C(=O)C6CC6)CC5)ccn4)[nH]c3c2)ccn1 get with TBK1 (Homo sapiens (Human), UniProt Q9UHD2)?
7.51

A: COc1c(NC2CCC2)ncnc1-c1ccc2nc(Nc3cc(C(C)N4CCN(C(=O)OC(C)(C)C)CC4)ccn3)[nH]c2c1 (single isomer, unassigned)
B: CC(C)(C)OC(=O)N1CCN(Cc2ccnc(Nc3nc4ccc(-c5cc(NCCO)ncn5)cc4[nH]3)c2)CC1
From the items above, decide which of A and B has the lower pIC50 reading. Write the label of whichever entry you select.
A
(A: 7.21, B: 7.89)

----------
target: UniProtKB Q9UHD2; assay: TBK1 low ATP kinase assay (in vitro assay 1); type: biochemical; details: in vitro assay 1, read-out: TBK1 low ATP kinase assay IC50
ENDPOINT: IC50 (nM)

Reported IC50 for Cc1nccc(-c2ccc3nc(Nc4cc(C(C)N5CCN(C(=O)CC6CC6)CC5)ccn4)[nH]c3c2)n1 (single isomer, unassigned) [Example 24.05.03.B] : what is it?
13.8

I: CC(c1ccnc(Nc2nc3ccc(-c4cc(N5CCC5)ncn4)cc3[nH]2)c1)N1CCN(C(=O)OC(C)(C)C)CC1 (single isomer, unassigned) [Example 115.01]
II: COc1nccc(-c2ccc3nc(Nc4cc(CN5CCN(C(=O)OC(C)(C)C)CC5)ccn4)[nH]c3c2)n1 [Example 25.01.01]
III: COc1ccc(-c2ccc3nc(Nc4cc(CN5CCN(C(=O)C6CC6)CC5)ccn4)[nH]c3c2)nn1 [Example 47.01]
IV: Cc1ncc(-c2ccc3nc(Nc4cc(CN5CCN(C(=O)CC(F)(F)F)CC5)ccn4)[nH]c3c2)cn1 [Example 45.03.01]
V: Cc1cc(-c2ccc3nc(Nc4cc(CN5CCN(C(=O)C6CC6)CC5)ccn4)[nH]c3c2)cc(C#N)n1 [Example 136.03]
Ordering: ascending IC50. State the ranking by listing the labels in the requested order.
I, V, II, III, IV
(I: 1.4 nM, V: 21 nM, II: 174 nM, III: 394 nM, IV: 3790 nM)

----------
molecular target: UniProt:Q9UHD2; assay: TBK1 low ATP kinase assay (in vitro assay 1); type: biochemical; details: in vitro assay 1, read-out: TBK1 low ATP kinase assay IC50
pIC50: −log10 of the molar value.
ENDPOINT: pIC50

Known results for molecules:
Reported pIC50 for Cc1noc(-c2ccc3nc(Nc4cc(CN5CCN(c6ncncn6)CC5)ccn4)[nH]c3c2)n1 [Example 101.27] : what is it?
6.46

Reported pIC50 for Cc1cc(-c2ccc3nc(Nc4cc(C(C)N5CCN(C(=O)CC(F)(F)F)CC5)ccn4)[nH]c3c2)n(C)n1 (single isomer, unassigned) [Example 89.02] : what is it?
6.35

Reported pIC50 for CC(c1ccnc(Nc2nc3ccc(-c4cc(C(F)(F)F)ncn4)cc3[nH]2)c1)N1CCN(C(=O)C2CC2)CC1 (racemic) [Example 29.01.02] : what is it?
8.46

Reported pIC50 for O=C(CC(F)(F)F)N1CCN(Cc2ccnc(Nc3nc4ccc(-c5ccsc5Cl)cc4[nH]3)c2)CC1 [Example 175.02] : what is it?
6.45

Reported pIC50 for CN(c1cc(-c2ccc3nc(Nc4cc(CN5CCN(C(=O)OC(C)(C)C)CC5)ccn4)[nH]c3c2)ncn1)C1CCC1 [Example 156.01] : what is it?
7.42

P: CC(c1ccnc(Nc2nc3ccc(-c4cnn(C[C@@H]5CC5(Cl)Cl)c4)cc3[nH]2)c1)N1CCN(C(=O)CC(F)(F)F)CC1 (single isomer, unassigned) [Example 170.02]
Q: CC(C)(C)OC(=O)N1CCN(Cc2ccnc(Nc3nc4ccc(-c5ccnc(N6CCOCC6)c5)cc4[nH]3)c2)CC1 [Example 134.01]
R: COc1c(NC2CC2)ncnc1-c1ccc2nc(Nc3cc(CN4CCN(C(=O)OC(C)(C)C)CC4)ccn3)[nH]c2c1 [Example 108.01]
Reorder: pIC50, max to min. State the ranking by listing the labels in the requested order.
P, R, Q
(P: 8.28, R: 7.46, Q: 7.24)

----------
molecular target: TBK1 (Homo sapiens (Human)); experiment: TBK1 low ATP kinase assay (in vitro assay 1); format: biochemical; details: in vitro assay 1, read-out: TBK1 low ATP kinase assay IC50
pIC50: −log10 of the molar value.
ENDPOINT: pIC50

So what pIC50 did COc1nccc(-c2ccc3nc(Nc4cc(CN5CCN(C(=O)C6CCC6)CC5)ccn4)[nH]c3c2)n1 [Example 25.01.02] get with TBK1 (Homo sapiens (Human))?
6.66

So what pIC50 did CCOc1nccc(-c2ccc3nc(Nc4cc(CN5CCN(C(=O)CC6CC6)CC5)ccn4)[nH]c3c2)n1 [Example 26.01.05] get with TBK1 (Homo sapiens (Human))?
7.85

So what pIC50 did O=C(C1CC1)N1CCN(Cc2ccnc(Nc3nc4ccc(-c5cc(C6CC6)ncn5)cc4[nH]3)c2)CC1 [Example 76.02] get with TBK1 (Homo sapiens (Human))?
8.03

So what pIC50 did COc1cncnc1-c1ccc2nc(Nc3cc(C(C)N4CCN(C(=O)CC5CC5)CC4)ccn3)[nH]c2c1 (racemic) [Example 35.02.02] get with TBK1 (Homo sapiens (Human))?
7.94

So what pIC50 did CC(C)Nc1ncnc(-c2ccc3nc(Nc4cc(CN5CCN(C(=O)OC(C)(C)C)CC5)ccn4)[nH]c3c2)c1F [Example 193.01] get with TBK1 (Homo sapiens (Human))?
7.38

a: CC(C)Cc1nc(-c2ccc3nc(Nc4cc(CN5CCN(C(=O)OC(C)(C)C)CC5)ccn4)[nH]c3c2)n(C)n1 [Example 42.01]
b: COc1c(-c2ccc3nc(Nc4cc(C(C)N5CCN(C(=O)CC(F)(F)F)CC5)ccn4)[nH]c3c2)ncnc1N1CCCC1 (single isomer, unassigned) [Example 112.03]
From the items above, decide which of a and b has the lower pIC50 reading. Write the label of whichever entry you select.
a
(a: 6.24, b: 8.85)

a: O=C(CC(F)(F)F)N1CCN(Cc2ccnc(Nc3nc4ccc(-c5cc(C6CC6)ncn5)cc4[nH]3)c2)CC1 [Example 76.01]
b: COCc1cc(-c2ccc3nc(Nc4cc(C(C)N5CCN(C(=O)OC(C)(C)C)CC5)ccn4)[nH]c3c2)ncn1 (single isomer, unassigned) [Example 84.01]
# returns the entry with the larger pIC50; inputs a and b Write the label of whichever entry you select.
b
(b: 8.96, a: 8.49)
